Value source: patent US20220289746A1

# TARGET SYSTEM: UniProt P08173
# Sequence (P08173 1-479): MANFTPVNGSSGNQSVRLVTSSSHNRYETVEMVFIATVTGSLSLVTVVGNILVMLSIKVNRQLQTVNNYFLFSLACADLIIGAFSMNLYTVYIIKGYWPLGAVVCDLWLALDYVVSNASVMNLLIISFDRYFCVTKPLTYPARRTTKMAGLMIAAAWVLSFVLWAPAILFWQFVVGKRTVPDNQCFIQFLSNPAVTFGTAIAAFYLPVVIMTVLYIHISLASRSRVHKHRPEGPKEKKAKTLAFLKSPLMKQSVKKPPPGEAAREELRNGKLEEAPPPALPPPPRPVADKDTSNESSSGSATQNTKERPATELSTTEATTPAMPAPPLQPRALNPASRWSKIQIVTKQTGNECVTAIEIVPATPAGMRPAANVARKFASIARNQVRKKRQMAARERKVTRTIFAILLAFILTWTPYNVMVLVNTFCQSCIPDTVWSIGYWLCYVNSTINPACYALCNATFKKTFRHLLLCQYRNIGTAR
# ASSAY PROTOCOL: cAMP assay for M4 positive allosteric modulators (M4 PAM cAMP assay)
# Type: cell-based
# Parameters: expressed in transfected cells; host or cells: CHO-K1
# CONDITION SET: Table 1; CHO-K1 cells expressing human M4; forskolin 7.5 μM + acetylcholine EC20 (0.2 nM)
Task for the reader: assign each of the following compounds its reported EC50.

These solved cases illustrate the format of a correct answer.
1. COCc1nc2c(c(C)c1Cl)CN(C(=O)[C@@H]1CCN(c3ccnnc3)C1)C2 | 0.881 µM
2. Cc1nc2c(c(C)c1Cl)CN(C(=O)[C@@H]1CCN(c3cncc(C(F)(F)F)c3)C1)C2 | 2.18 µM
3. Cc1cncc(N2CC[C@@H](C(=O)N3Cc4nc(C)c(Cl)c(C)c4C3)C2)n1 | 0.591 µM

Please look at the following compound next.
# input Give the reported EC50 for Cc1nc2c(c(C)c1Cl)CN(C(=O)[C@@H]1CCN(c3cncc(C4CC4)c3)C1)C2 (system: UniProt P08173).
# output 3.64 µM

###

# TARGET SYSTEM: human M4 receptor (Homo sapiens)
# ASSAY PROTOCOL: Calcium flux assay using fluorescent imaging (M4 PAM FLIPR assay)
# Assay type: cell-based
# Set-up: expressed in transfected cells; host or cells: CHO (monoclonal line, clone 2)
# CONDITION SET: Table 1; CHO cells expressing human M4+Gqi5; acetylcholine EC20
Task for the reader: assign each of the following molecules its reported EC50.
Be sure to follow the number with its unit.

1) Cc1cc(N2CC[C@@H](C(=O)N3Cc4nc(C)c(Cl)c(C)c4C3)C2)cnn1 [Example 52] | 527 nM

Report EC50 for each item below.
1. Cc1nc2c(c(C)c1Cl)CN(C(=O)[C@@H]1CCN(c3cncnc3)C1)C2 [Example 30]
2. Cc1nc2c(c(C)c1Cl)CN(C(=O)[C@@H]1CCN(c3cncc(C(F)F)c3)C1)C2 [Example 15]
3. Cc1cc(N2CC[C@@H](C(=O)N3Cc4nc(C)c(Cl)c(C)c4C3)C2)ncn1 [Example 26]
4. Cc1ccncc1N1CC[C@@H](C(=O)N2Cc3nc(C)c(Cl)c(C)c3C2)C1 [Example 13]
5. Cc1ncncc1N1CC[C@@H](C(=O)N2Cc3nc(C)c(Cl)c(C)c3C2)C1 [Example 37]

# output
1: 59 nM; 2: 306 nM; 3: 166 nM; 4: 528 nM; 5: 394 nM

Report EC50 for each item below.
1. Cc1nc2c(c(C)c1Cl)CN(C(=O)[C@@H]1CCN(c3cccnn3)C1)C2 [Example 39]
2. Cc1cnc(N2CC[C@@H](C(=O)N3Cc4nc(C)c(Cl)c(C)c4C3)C2)nc1 [Example 8]

# output
2520 nM
2350 nM
